Reported values of half-life at 1 µM for individual entries
- test: Microsomal stability, mouse
- Format: in vitro ADME
- conditions used: mouse, pooled liver microsomes, pH 7.4, mouse liver microsomes 0.5 mg/mL; 1 µM compound; read-out: Microsomal stability t1/2, Mouse
- Method: 2.4. Assay descriptions for the profiling of all four stereoisomers of (+)-floyocidin B and (−)-avicennone C,1 the avicennone C-floyocidin B hybrids 35, ent-35, 36 and ent-36 as well as the natural product (+)-floyocidin A. […] Pooled liver microsomes are purchased. […] From a plot of ln peak area ratio (compound peak area/internal standard peak area) against time, the gradient of the line is determined. Subsequently, half -life and intrinsic clearance are calculated using the equations below: […]

>>> df
                                   molecule  measured_property        val
0  CCC/C=C/c1cc2c(cn1)[C@@H](O)[C@H]1O[C@@]1(CC=C(C)C)C2=O  half-life at 1 µM   3.97 min
1  CCCC=Cc1ccc2c(c1)C(=O)C1(CC=C(C)C)OC1C2O (stereo not shown)  half-life at 1 µM   1.33 min
2  CCC/C=C/c1cc2c(cn1)[C@H](O)[C@H]1O[C@@]1(CC=C(C)C)C2=O  half-life at 1 µM  0.924 min

Pending molecule:
Ask | Find the recorded half-life at 1 µM belonging to CCC/C=C/c1ccc2c(c1)C(=O)[C@]1(CC=C(C)C)O[C@@H]1[C@H]2O and report it.
Reply | 5.36 min

====

- test: Microsomal stability, mouse
- Type: in vitro ADME
- conditions used: mouse liver microsomes 0.5 mg/mL; 1 µM compound
measured property: Microsomal stability CLint, Mouse (μL/min/mg protein)
Response body: numeric value in μL/min/mg protein, unit text excluded.

In [3]: df
Out[3]:
                                   compound  val
0  CCCC=Cc1ccc2c(c1)C(=O)C1(CC=C(C)C)OC1C2O (stereo not drawn) [ent‐35]  561

Ask | Find the recorded Microsomal stability CLint, Mouse belonging to CC(C)=CCC12OC1C(O)c1ccccc1C2=O (stereo not drawn) [compound 38] and report it.
Reply | 1070

Ask | Try this compound next: CCCC=Cc1cc2c(cn1)C(O)C1OC1(CC=C(C)C)C2=O (stereo not drawn) [ent‐4]
Reply | 271

Ask | Try this compound next: CCCC=Cc1ccc2c(c1)C(=O)C1(CC=C(C)C)OC1C2O (stereo not drawn) [ent‐36]
Reply | 721

Ask | Try this compound next: CCCC=Cc1cc2c(cn1)C(O)C1OC1(CC=C(C)C)C2=O (stereo not drawn) [ent‐27]
Reply | 764

Ask | Try this compound next: CC(C)=CCC12OC1C(O)c1ccccc1C2=O (stereo not drawn) [ent‐37]
Reply | 370

====

- System: M. catarrhalis ATCC25238I
- test: Micro-broth dilution growth inhibition, M. catarrhalis
- Format: cell-based
measured property: MIC (µg/mL)
Response body: numeric value in µg/mL, unit text excluded.

In [3]: df
Out[3]:
                                   molecule  val
0  CC(C)=CCC12OC1C(O)c1ccccc1C2=O (stereo not shown) [compound 37]  128

Ask | # value lookup — system M. catarrhalis ATCC25238I, readout MIC, item CCCC=Cc1ccc2c(c1)C(=O)C1(CC=C(C)C)OC1C2O (stereo not shown)
Reply | 32

Ask | Try this molecule next: CCCC=Cc1cc2c(cn1)C(O)C1OC1(CC=C(C)C)C2=O (stereo not shown)
Reply | 8

Ask | Try this molecule next: CC(C)=CCC12OC1C(O)c1ccccc1C2=O (stereo not drawn) [compound 2, (−)‐avicennone C, reference compound]
Reply | 64

====

- test: Microsomal stability, human
- Type: in vitro ADME
- conditions used: human, pooled liver microsomes, pH 7.4, human liver microsomes 0.5 mg/mL; 1 µM compound; read-out: Microsomal stability t1/2, Human
- Protocol: 2.4. Assay descriptions for the profiling of all four stereoisomers of (+)-floyocidin B and (−)-avicennone C,1 the avicennone C-floyocidin B hybrids 35, ent-35, 36 and ent-36 as well as the natural product (+)-floyocidin A. […] Pooled liver microsomes are purchased. […] From a plot of ln peak area ratio (compound peak area/internal standard peak area) against time, the gradient of the line is determined. Subsequently, half -life and intrinsic clearance are calculated using the equations below: […]
Reported values of half-life at 1 µM for individual entries
Response body: numeric value in min, unit text excluded.

>>> print(df.to_string())
                                   molecule  measured_property   val
0  CCC/C=C/c1ccc2c(c1)C(=O)[C@]1(CC=C(C)C)O[C@@H]1[C@H]2O [compound 36]  half-life at 1 µM  34.9
1  CCC/C=C/c1cc2c(cn1)[C@@H](O)[C@H]1O[C@@]1(CC=C(C)C)C2=O [compound 4]  half-life at 1 µM  19.1
2  CCCC=Cc1ccc2c(c1)C(=O)C1(CC=C(C)C)OC1C2O (centres unmarked) [compound 35]  half-life at 1 µM  30.5
3  CCC/C=C/c1cc2c(cn1)[C@H](O)[C@H]1O[C@@]1(CC=C(C)C)C2=O [compound 27]  half-life at 1 µM  14.5

Pending molecule:
Ask | Find the recorded half-life at 1 µM belonging to CCCC=Cc1cc2c(cn1)C(O)C1OC1(CC=C(C)C)C2=O (stereo not drawn) [ent‐4] and report it.
Reply | 51.6

====

Reported values of Microsomal stability t1/2, Mouse for individual entries
- test: Microsomal stability, mouse
- Assay type: in vitro ADME
- conditions used: mouse liver microsomes 0.5 mg/mL; 1 µM compound
Response body: numeric value in min, unit text excluded.

>>> print(df.to_string())
                                   compound                 measured_property  unit_string   val
0  CC(C)=CCC12OC1C(O)c1ccccc1C2=O (stereo not drawn) [compound 38]  Microsomal stability t1/2, Mouse          min  1.29
1  CCCC=Cc1cc2c(cn1)C(O)C1OC1(CC=C(C)C)C2=O (stereo not drawn) [ent‐27]  Microsomal stability t1/2, Mouse          min  1.81
2  CCCC=Cc1ccc2c(c1)C(=O)C1(CC=C(C)C)OC1C2O (stereo not drawn) [ent‐35]  Microsomal stability t1/2, Mouse          min  2.47
3  CCCC=Cc1ccc2c(c1)C(=O)C1(CC=C(C)C)OC1C2O (stereo not drawn) [ent‐36]  Microsomal stability t1/2, Mouse          min  1.92
4  CC(C)=CCC12OC1C(O)c1ccccc1C2=O (stereo not drawn) [ent‐37]  Microsomal stability t1/2, Mouse          min  3.75

Pending compound:
Ask | Find the recorded Microsomal stability t1/2, Mouse belonging to CCCC=Cc1cc2c(cn1)C(O)C1OC1(CC=C(C)C)C2=O (stereo not drawn) [ent‐4] and report it.
Reply | 5.12

====

- Tested on: THP1 cells
- test: Cytotoxicity on THP1 cells (CellTiterGlo)
- Format: cell-based
- conditions used: THP1 cells; 40 h
- Experimental: Cytotoxicity on THP1 and HepG2 cells After 4 hours of HepG2 cell line (provided by ATCC) plating at 2.500 cells /well in 384-w plates, compounds were added to the cells. After an incubation at 37 °C for 40 h, the CellTiterGlo assay (provided by Promega) was performed. Luminescence measurement is related to the cell viability. Compound activity is determined by using the control wells with no treatment as control (100% of growth). The assay was performed identically with THP1 cells. […]
Reported values of Cytotoxicity TC50 THP1 for individual entries
Answer with the figure and its unit, nothing else.

>>> print(df.to_string())
                                   compound  system_tested       measured_property      val
0  CCCC=Cc1ccc2c(c1)C(=O)C1(CC=C(C)C)OC1C2O (stereo not drawn) [compound 35]     THP1 cells  Cytotoxicity TC50 THP1  12.9 µM
1  CCCC=Cc1ccc2c(c1)C(=O)C1(CC=C(C)C)OC1C2O (stereo not drawn) [ent‐36]     THP1 cells  Cytotoxicity TC50 THP1  18.2 µM
2  CCCC=Cc1cc2c(cn1)C(O)C1OC1(CC=C(C)C)C2=O (stereo not drawn) [ent‐27]     THP1 cells  Cytotoxicity TC50 THP1  11.5 µM
3  CC(C)=CCC12OC1C(O)c1ccccc1C2=O (stereo not drawn) [compound 2, (−)‐avicennone C, reference compound]     THP1 cells  Cytotoxicity TC50 THP1    30 µM
4  CCC/C=C/c1cc2c(cn1)[C@H](O)[C@H]1O[C@@]1(CC=C(C)C)C2=O     THP1 cells  Cytotoxicity TC50 THP1  10.6 µM
5  CCC/C=C/c1cc2c(cn1)[C@@H](O)[C@H]1O[C@@]1(CC=C(C)C)C2=O     THP1 cells  Cytotoxicity TC50 THP1  5.84 µM
6  CCC/C=C/c1ccc2c(c1)C(=O)[C@]1(CC=C(C)C)O[C@@H]1[C@H]2O     THP1 cells  Cytotoxicity TC50 THP1  15.1 µM
7  CC(C)=CCC12OC1C(O)c1ccccc1C2=O (stereo not drawn) [ent‐37]     THP1 cells  Cytotoxicity TC50 THP1  25.2 µM
8  CCCC=Cc1ccc2c(c1)C(=O)C1(CC=C(C)C)OC1C2O (stereo not drawn) [ent‐35]     THP1 cells  Cytotoxicity TC50 THP1  12.9 µM
9  CCCC=Cc1cc2c(cn1)C(O)C1OC1(CC=C(C)C)C2=O (stereo not drawn) [ent‐4]     THP1 cells  Cytotoxicity TC50 THP1  8.78 µM

Ask | Find the recorded Cytotoxicity TC50 THP1 belonging to CC(C)=CCC12OC1C(O)c1ccccc1C2=O (stereo not drawn) [compound 37] and report it.
Reply | 27.2 µM

Ask | Try this compound next: CC(C)=CCC12OC1C(O)c1ccccc1C2=O (stereo not drawn) [compound 38]
Reply | 30 µM

This collection of values is drawn from paper PMC9298916.
